Target: T1, murine PILRA (mouse, UniProt Q2YFS3 32-302)
T1 construct: Ectopically expressed on 293 cells; also called mPILRA; mouse PILRA
T1 sequence (Q2YFS3 32-302): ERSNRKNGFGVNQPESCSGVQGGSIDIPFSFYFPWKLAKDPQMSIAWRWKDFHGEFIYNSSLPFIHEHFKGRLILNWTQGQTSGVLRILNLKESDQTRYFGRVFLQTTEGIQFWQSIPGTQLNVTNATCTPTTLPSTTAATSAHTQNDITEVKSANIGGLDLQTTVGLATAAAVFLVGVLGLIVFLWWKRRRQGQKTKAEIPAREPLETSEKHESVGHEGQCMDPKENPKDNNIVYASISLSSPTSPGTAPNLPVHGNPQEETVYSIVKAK
Test: flow cytometry, hybridoma conditioned medium on 293 cells expressing the target; MFI relative to 293 parental cells
Experimental: Antibodies against human PILRA were generated as follows. […] PILRA^{-/-} PILRB1^{-/-} PILRB2^{-/-} mice were immunized with human PILRA protein, and hybridomas prepared using standard methods. 300 conditioned media samples containing antibodies were assessed for binding to parental 293 cells or 293 cells ectopically expressing hPILRA, hPILRB, cPILRA, mPILRA, or mPILRB by FACS. […] Six antibodies were identified as human PILRA binders using a cutoff of greater than 5-fold binding. […]
I'd be grateful if you could share measured MFI relative to 293 parental cells for these entries.

Known MFI relative to 293 parental cells results, listed for orientation:
hPA-002 (antibody, V domains shown, Mouse hybridoma antibody, tested as conditioned medium or purified; also called hPA-002 A647) VH: QVTLQESGPGILQPSQTLSLTCSFSGFSLSTFGMGVGWIRQPSGKGLEWLAHIWWDDDKYYNPALKSRLTISKDTSKNQVFLKIASVDTADIATYYCARVEDYGNPFDYWGQGTTLTVSS VL: DIQMNQSPSSLSASLGDTITITCHASQNIHVWLNWYQQKPGNIPKLLIYKASNLHTGVPSRFSGSGSGTGFTVTISSLQPEDIATYYCQQGQSYPLTFGAGTKLELK ... 0.3 fold over 293 parental cells
hPA-001 (antibody, V domains shown, Mouse hybridoma antibody, tested as conditioned medium) VH: QVTLKESGPGILQPSQTLSLTCSFSGFSLTTFGMGVGWIRQPSGKGLEWLAHIWWDDDKYYNPALKSRLTISKDISKNQVFLKIANVDTADTATYYCARIEDYGNPFDYWGQGTTLTVSS VL: DIQMNQSPSSLSASLGDTITITCHASQNIHVWLSWYQQKPGNIPKLLIYKASNLHTGVPSRFSGSGSGTGFTLTISSLQPEDIATYYCQQGQSYPLTFGAGTKLELK ... 0.5 fold over 293 parental cells
hPA-005 (antibody, V domains shown, Mouse hybridoma antibody, tested as conditioned medium or purified) VH: QVILKESGPGILQSSQTLSLTCSFSGFSLSTFGMGVGWIRQPSGKGLESLAHIWWDDDKFYNPALKSRLTISKDTSKSQVFLKIANVDTADIATYYCTRIEDYGSYFAYWGQGTTLTVSS VL: DVQMNQSPSSLSASLGDPITITCHASQNIHVWLNWYQQRPGNIPRLLIYKASNLHTGVPSRFSGSGSGTGFTLTISSLQPEDIATYYCQQGQSYPYTFGGGTKLEIK ... 0.4 fold over 293 parental cells

Look at this binder and give its reported MFI relative to 293 parental cells. hPA-004 (antibody, V domains shown, Mouse hybridoma antibody, tested as conditioned medium or purified) VH: QVTLKESGPGMLQPSQTLSLACSFSGFSLNSFGVAVGWIRQPSGKGLEWLAHIWWDDDKSYNPALKSRLTISKDTSKNQVFLKLANVDTADTATYYCTRIADYGNHFDYWGQGTALTVSS VL: DIQMNQSPSSLSASLGDTITITCHASQNSHVWLSWYQQKPGNIPKLLIYKASNLHTGVPSRFSGSGSGTGFTLTISGLQPEDIATYYCQQGQTYPFTFGSGTKLEIK
0.6 fold over 293 parental cells
